Test system: Pasteurella multocida
measurement.notes: minimum inhibitory concentration (MIC)
experimental.parameters: isolate (source animal id): 10
Reported minimum inhibitory concentration values for the following compounds.
Kindly answer with a numeric value in µg/mL, unit omitted.

>  <compound>
CNC(C)C1CCC(N)C(OC2C(N)CC(N)C(OC3OCC(C)(O)C(NC)C3O)C2O)O1 (stereo not given) [Gentamicin]

>  <minimum inhibitory concentration, µg/mL>
4

$$$$
>  <compound>
C=C[C@]1(C)C[C@@H](OC(=O)CSCCN(CC)CC)[C@]2(C)[C@H](C)CC[C@]3(CCC(=O)[C@H]32)[C@@H](C)[C@@H]1O [Tiamulin]

>  <minimum inhibitory concentration, µg/mL>
16

$$$$

Turning to the following compound.
Prompt: Lab note: need minimum inhibitory concentration with Pasteurella multocida for entry CCCN1C[C@H](C)[C@@H](O)[C@](C)(O)[C@@H](CC)OC(=O)[C@H](C)[C@@H](O[C@H]2C[C@@](C)(OC)[C@@H](O)[C@H](C)O2)[C@H](C)[C@@H](O[C@@H]2O[C@H](C)C[C@H](N(C)C)[C@H]2O)[C@](C)(O)C[C@H]1C [Gamithromycin] , please look it up.
Response: 8

* * *

Reported minimum inhibitory concentration values for the following compounds.
System: Enterococcus spp.
measurement.notes: minimum inhibitory concentration (MIC)
experimental.parameters: isolate (source animal id): 92
Kindly answer with a numeric value in µg/mL, unit omitted.

Illustrative cases are given below, each with its answer.
>  <compound>
CC1(C)S[C@@H]2[C@H](NC(=O)Cc3ccccc3)C(=O)N2[C@H]1C(=O)O [Penicillin]

>  <assayed.system>
Enterococcus spp.

>  <value.observed>
0.5

$$$$
>  <compound>
CN[C@@H]1[C@H](O)[C@H](NC)[C@H]2O[C@@]3(O)C(=O)C[C@@H](C)O[C@H]3O[C@@H]2[C@H]1O [Spectinomycin]

>  <assayed.system>
Enterococcus spp.

>  <value.observed>
16

$$$$
>  <compound>
CNC(C)C1CCC(N)C(OC2C(N)CC(N)C(OC3OCC(C)(O)C(NC)C3O)C2O)O1 (stereo not drawn) [Gentamicin]

>  <assayed.system>
Enterococcus spp.

>  <value.observed>
2

$$$$

Prompt: Could you share which minimum inhibitory concentration value was measured for CC[C@H]1OC(=O)C[C@@H](O)[C@H](C)[C@@H](O[C@@H]2O[C@H](C)[C@@H](O)[C@H](N(C)C)[C@H]2O)[C@@H](CCN2C[C@H](C)C[C@H](C)C2)C[C@@H](C)C(=O)/C=C/C(C)=C/[C@@H]1CO[C@@H]1O[C@H](C)[C@@H](O)[C@@H](OC)[C@H]1OC [Tilmicosin] ?
Response: 16

Prompt: Request: CS(=O)(=O)c1ccc([C@@H](O)[C@@H](CF)NC(=O)C(Cl)Cl)cc1 [Florfenicol]
Response: 2

Prompt: Request: CN1C[C@@H]2C[C@H]1CN2c1cc2c(cc1F)c(=O)c(C(=O)O)cn2C1CC1 [Danofloxacin]
Response: 1

Prompt: Request: CCCN1C[C@H](C)[C@@H](O)[C@](C)(O)[C@@H](CC)OC(=O)[C@H](C)[C@@H](O[C@H]2C[C@@](C)(OC)[C@@H](O)[C@H](C)O2)[C@H](C)[C@@H](O[C@@H]2O[C@H](C)C[C@H](N(C)C)[C@H]2O)[C@](C)(O)C[C@H]1C [Gamithromycin]
Response: 2

* * *

Test system: Pasteurella multocida
measurement.notes: minimum inhibitory concentration (MIC)
experimental.parameters: isolate (source animal id): 169
attribute.measured: minimum inhibitory concentration

Illustrative cases are given below, each with its answer.
>  <smiles.text>
CN1C[C@@H]2C[C@H]1CN2c1cc2c(cc1F)c(=O)c(C(=O)O)cn2C1CC1

>  <value.observed>
≤ 0.12 µg/mL

$$$$
>  <smiles.text>
COc1cc(Cc2cnc(N)nc2N)cc(OC)c1OC.Cc1cc(NS(=O)(=O)c2ccc(N)cc2)no1

>  <value.observed>
≤ 2 µg/mL

$$$$
>  <smiles.text>
CC[C@H]1OC(=O)C[C@@H](O)[C@H](C)[C@@H](O[C@@H]2O[C@H](C)[C@@H](O[C@H]3C[C@@](C)(O)[C@@H](O)[C@H](C)O3)[C@H](N(C)C)[C@H]2O)[C@@H](CC=O)C[C@@H](C)C(=O)/C=C/C(C)=C/[C@@H]1CO[C@@H]1O[C@H](C)[C@@H](O)[C@@H](OC)[C@H]1OC

>  <value.observed>
> 32 µg/mL

$$$$

Prompt: Could you share which minimum inhibitory concentration value was measured for CCC[C@@H]1C[C@@H](C(=O)N[C@@H]([C@H]2O[C@H](SC)[C@H](O)[C@@H](O)[C@H]2O)[C@H](C)Cl)N(C)C1 ?
Response: > 16 µg/mL

Prompt: Request: CO/N=C(\C(=O)N[C@@H]1C(=O)N2C(C(=O)O)=C(CSC(=O)c3ccco3)CS[C@H]12)c1csc(N)n1
Response: ≤ 0.25 µg/mL

Prompt: Request: CN(C)[C@@H]1C(O)=C(C(N)=O)C(=O)[C@@]2(O)C(O)=C3C(=O)c4c(O)cccc4[C@@](C)(O)[C@H]3C[C@@H]12
Response: 4 µg/mL

Prompt: Request: NC[C@@H]1O[C@H](O[C@H]2[C@@H](O)[C@H](O[C@@H]3[C@@H](O)[C@H](N)C[C@H](N)[C@H]3O[C@H]3O[C@H](CN)[C@@H](O)[C@H](O)[C@H]3N)O[C@@H]2CO)[C@H](N)[C@@H](O)[C@@H]1O
Response: > 32 µg/mL

Prompt: Request: CC1(C)S[C@@H]2[C@H](NC(=O)Cc3ccccc3)C(=O)N2[C@H]1C(=O)O
Response: ≤ 0.12 µg/mL

Prompt: Request: COc1cc(NS(=O)(=O)c2ccc(N)cc2)nc(OC)n1
Response: > 256 µg/mL

* * *

Tested on: Enterococcus spp.
measurement.notes: minimum inhibitory concentration (MIC)
experimental.parameters: isolate (source animal id): 247
Reported minimum inhibitory concentration values for the following compounds.
Kindly answer with a numeric value in µg/mL, unit omitted.

>  <compound>
CN1C[C@@H]2C[C@H]1CN2c1cc2c(cc1F)c(=O)c(C(=O)O)cn2C1CC1 [Danofloxacin]

>  <assayed.system>
Enterococcus spp.

>  <value.observed>
0.5

$$$$

Prompt: Could you share which minimum inhibitory concentration value was measured for CS(=O)(=O)c1ccc([C@@H](O)[C@@H](CF)NC(=O)C(Cl)Cl)cc1 [Florfenicol] ?
Response: 4

* * *

Test system: Enterococcus spp.
measurement.notes: minimum inhibitory concentration (MIC)
experimental.parameters: isolate (source animal id): 182
attribute.measured: minimum inhibitory concentration (µg/mL)
Kindly answer with a numeric value in µg/mL, unit omitted.

>  <smiles.text>
CC1(C)S[C@@H]2[C@H](NC(=O)[C@H](N)c3ccccc3)C(=O)N2[C@H]1C(=O)O

>  <minimum inhibitory concentration (µg/mL)>
2

$$$$

Turning to the following compound.
Prompt: Could you share which minimum inhibitory concentration value was measured for CCN1CCN(c2cc3c(cc2F)c(=O)c(C(=O)O)cn3C2CC2)CC1 ?
Response: 0.5

* * *

Tested on: Mannheimia haemolytica
measurement.notes: minimum inhibitory concentration (MIC)
experimental.parameters: isolate (source animal id): 188
Reported minimum inhibitory concentration values for the following molecules.

>  <molecule>
CS(=O)(=O)c1ccc([C@@H](O)[C@@H](CF)NC(=O)C(Cl)Cl)cc1

>  <assayed.system>
Mannheimia haemolytica

>  <value.observed>
> 8 µg/mL

$$$$
>  <molecule>
CCCNC[C@]1(O)[C@H](C)O[C@@H](O[C@H]2[C@H](C)[C@@H](O[C@@H]3O[C@H](C)C[C@H](N(C)C)[C@H]3O)[C@](C)(O)C[C@@H](C)CN[C@H](C)[C@@H](O)[C@](C)(O)[C@@H](CC)OC(=O)[C@@H]2C)C[C@@]1(C)OC

>  <assayed.system>
Mannheimia haemolytica

>  <value.observed>
≤ 8 µg/mL

$$$$
>  <molecule>
CCN1CCN(c2cc3c(cc2F)c(=O)c(C(=O)O)cn3C2CC2)CC1

>  <assayed.system>
Mannheimia haemolytica

>  <value.observed>
≤ 0.12 µg/mL

$$$$
>  <molecule>
CC1(C)S[C@@H]2[C@H](NC(=O)Cc3ccccc3)C(=O)N2[C@H]1C(=O)O

>  <assayed.system>
Mannheimia haemolytica

>  <value.observed>
> 8 µg/mL

$$$$
>  <molecule>
CNC(C)C1CCC(N)C(OC2C(N)CC(N)C(OC3OCC(C)(O)C(NC)C3O)C2O)O1 (configuration not stated)

>  <assayed.system>
Mannheimia haemolytica

>  <value.observed>
2 µg/mL

$$$$
>  <molecule>
COc1cc(Cc2cnc(N)nc2N)cc(OC)c1OC.Cc1cc(NS(=O)(=O)c2ccc(N)cc2)no1

>  <assayed.system>
Mannheimia haemolytica

>  <value.observed>
≤ 2 µg/mL

$$$$

Prompt: Could you share which minimum inhibitory concentration value was measured for CC[C@H]1OC(=O)C[C@@H](O)[C@H](C)[C@@H](O[C@@H]2O[C@H](C)[C@@H](O[C@H]3C[C@@](C)(O)[C@@H](O)[C@H](C)O3)[C@H](N(C)C)[C@H]2O)[C@@H](CC=O)C[C@@H](C)C(=O)/C=C/C(C)=C/[C@@H]1CO[C@@H]1O[C@H](C)[C@@H](O)[C@@H](OC)[C@H]1OC ?
Response: > 32 µg/mL
